Kindly state Ki for each of the entries shown.
Molecular target: mouse TAAR1 (Mus musculus (Mouse))
Sequence (Q923Y8 whole entry): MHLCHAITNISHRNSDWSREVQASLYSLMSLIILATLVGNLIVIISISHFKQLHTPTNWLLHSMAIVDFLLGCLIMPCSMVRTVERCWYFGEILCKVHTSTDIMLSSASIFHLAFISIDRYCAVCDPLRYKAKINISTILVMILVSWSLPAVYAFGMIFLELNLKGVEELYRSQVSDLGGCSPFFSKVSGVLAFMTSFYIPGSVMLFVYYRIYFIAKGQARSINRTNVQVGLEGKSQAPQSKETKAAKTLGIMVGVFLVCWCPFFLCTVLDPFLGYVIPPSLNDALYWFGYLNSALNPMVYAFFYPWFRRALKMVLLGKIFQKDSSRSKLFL
Experiment: Radioligand binding assay on mouse TAAR1
Details: mouse TAAR1, membranes of HEK-293 cells, first value of the cell pair mouse/rat
Structures can show the parent of a compound that is named as a salt.
State the result as a value with its unit after it.

Some solved entries appear below for comparison.
Clc1cc(-c2cc(-c3ccc([C@H]4CNCCO4)cc3)n[nH]2)ccn1 [Example 42, hydrochloride]    0.0016 µM
Fc1ccc(-c2cn(-c3ccc([C@H]4CNCCO4)cc3)nn2)cc1 [Example 27, hydrochloride]    0.0004 µM

Batch request: Ki for each of the following compounds.
1. Clc1cnc2[nH]c3ccc([C@H]4CNCCO4)cc3c2c1 [Example 47, hydrochloride]
2. O=C(Nc1cc(-c2ccc([C@H]3CNCCO3)cc2)n[nH]1)c1ccc(F)cc1 [Example 30, hydrochloride]

Result ::
["0.0032 µM", "0.0022 µM"]
